target: Serine-protein kinase ATM (Homo sapiens)
Sequence (Q13315 whole entry): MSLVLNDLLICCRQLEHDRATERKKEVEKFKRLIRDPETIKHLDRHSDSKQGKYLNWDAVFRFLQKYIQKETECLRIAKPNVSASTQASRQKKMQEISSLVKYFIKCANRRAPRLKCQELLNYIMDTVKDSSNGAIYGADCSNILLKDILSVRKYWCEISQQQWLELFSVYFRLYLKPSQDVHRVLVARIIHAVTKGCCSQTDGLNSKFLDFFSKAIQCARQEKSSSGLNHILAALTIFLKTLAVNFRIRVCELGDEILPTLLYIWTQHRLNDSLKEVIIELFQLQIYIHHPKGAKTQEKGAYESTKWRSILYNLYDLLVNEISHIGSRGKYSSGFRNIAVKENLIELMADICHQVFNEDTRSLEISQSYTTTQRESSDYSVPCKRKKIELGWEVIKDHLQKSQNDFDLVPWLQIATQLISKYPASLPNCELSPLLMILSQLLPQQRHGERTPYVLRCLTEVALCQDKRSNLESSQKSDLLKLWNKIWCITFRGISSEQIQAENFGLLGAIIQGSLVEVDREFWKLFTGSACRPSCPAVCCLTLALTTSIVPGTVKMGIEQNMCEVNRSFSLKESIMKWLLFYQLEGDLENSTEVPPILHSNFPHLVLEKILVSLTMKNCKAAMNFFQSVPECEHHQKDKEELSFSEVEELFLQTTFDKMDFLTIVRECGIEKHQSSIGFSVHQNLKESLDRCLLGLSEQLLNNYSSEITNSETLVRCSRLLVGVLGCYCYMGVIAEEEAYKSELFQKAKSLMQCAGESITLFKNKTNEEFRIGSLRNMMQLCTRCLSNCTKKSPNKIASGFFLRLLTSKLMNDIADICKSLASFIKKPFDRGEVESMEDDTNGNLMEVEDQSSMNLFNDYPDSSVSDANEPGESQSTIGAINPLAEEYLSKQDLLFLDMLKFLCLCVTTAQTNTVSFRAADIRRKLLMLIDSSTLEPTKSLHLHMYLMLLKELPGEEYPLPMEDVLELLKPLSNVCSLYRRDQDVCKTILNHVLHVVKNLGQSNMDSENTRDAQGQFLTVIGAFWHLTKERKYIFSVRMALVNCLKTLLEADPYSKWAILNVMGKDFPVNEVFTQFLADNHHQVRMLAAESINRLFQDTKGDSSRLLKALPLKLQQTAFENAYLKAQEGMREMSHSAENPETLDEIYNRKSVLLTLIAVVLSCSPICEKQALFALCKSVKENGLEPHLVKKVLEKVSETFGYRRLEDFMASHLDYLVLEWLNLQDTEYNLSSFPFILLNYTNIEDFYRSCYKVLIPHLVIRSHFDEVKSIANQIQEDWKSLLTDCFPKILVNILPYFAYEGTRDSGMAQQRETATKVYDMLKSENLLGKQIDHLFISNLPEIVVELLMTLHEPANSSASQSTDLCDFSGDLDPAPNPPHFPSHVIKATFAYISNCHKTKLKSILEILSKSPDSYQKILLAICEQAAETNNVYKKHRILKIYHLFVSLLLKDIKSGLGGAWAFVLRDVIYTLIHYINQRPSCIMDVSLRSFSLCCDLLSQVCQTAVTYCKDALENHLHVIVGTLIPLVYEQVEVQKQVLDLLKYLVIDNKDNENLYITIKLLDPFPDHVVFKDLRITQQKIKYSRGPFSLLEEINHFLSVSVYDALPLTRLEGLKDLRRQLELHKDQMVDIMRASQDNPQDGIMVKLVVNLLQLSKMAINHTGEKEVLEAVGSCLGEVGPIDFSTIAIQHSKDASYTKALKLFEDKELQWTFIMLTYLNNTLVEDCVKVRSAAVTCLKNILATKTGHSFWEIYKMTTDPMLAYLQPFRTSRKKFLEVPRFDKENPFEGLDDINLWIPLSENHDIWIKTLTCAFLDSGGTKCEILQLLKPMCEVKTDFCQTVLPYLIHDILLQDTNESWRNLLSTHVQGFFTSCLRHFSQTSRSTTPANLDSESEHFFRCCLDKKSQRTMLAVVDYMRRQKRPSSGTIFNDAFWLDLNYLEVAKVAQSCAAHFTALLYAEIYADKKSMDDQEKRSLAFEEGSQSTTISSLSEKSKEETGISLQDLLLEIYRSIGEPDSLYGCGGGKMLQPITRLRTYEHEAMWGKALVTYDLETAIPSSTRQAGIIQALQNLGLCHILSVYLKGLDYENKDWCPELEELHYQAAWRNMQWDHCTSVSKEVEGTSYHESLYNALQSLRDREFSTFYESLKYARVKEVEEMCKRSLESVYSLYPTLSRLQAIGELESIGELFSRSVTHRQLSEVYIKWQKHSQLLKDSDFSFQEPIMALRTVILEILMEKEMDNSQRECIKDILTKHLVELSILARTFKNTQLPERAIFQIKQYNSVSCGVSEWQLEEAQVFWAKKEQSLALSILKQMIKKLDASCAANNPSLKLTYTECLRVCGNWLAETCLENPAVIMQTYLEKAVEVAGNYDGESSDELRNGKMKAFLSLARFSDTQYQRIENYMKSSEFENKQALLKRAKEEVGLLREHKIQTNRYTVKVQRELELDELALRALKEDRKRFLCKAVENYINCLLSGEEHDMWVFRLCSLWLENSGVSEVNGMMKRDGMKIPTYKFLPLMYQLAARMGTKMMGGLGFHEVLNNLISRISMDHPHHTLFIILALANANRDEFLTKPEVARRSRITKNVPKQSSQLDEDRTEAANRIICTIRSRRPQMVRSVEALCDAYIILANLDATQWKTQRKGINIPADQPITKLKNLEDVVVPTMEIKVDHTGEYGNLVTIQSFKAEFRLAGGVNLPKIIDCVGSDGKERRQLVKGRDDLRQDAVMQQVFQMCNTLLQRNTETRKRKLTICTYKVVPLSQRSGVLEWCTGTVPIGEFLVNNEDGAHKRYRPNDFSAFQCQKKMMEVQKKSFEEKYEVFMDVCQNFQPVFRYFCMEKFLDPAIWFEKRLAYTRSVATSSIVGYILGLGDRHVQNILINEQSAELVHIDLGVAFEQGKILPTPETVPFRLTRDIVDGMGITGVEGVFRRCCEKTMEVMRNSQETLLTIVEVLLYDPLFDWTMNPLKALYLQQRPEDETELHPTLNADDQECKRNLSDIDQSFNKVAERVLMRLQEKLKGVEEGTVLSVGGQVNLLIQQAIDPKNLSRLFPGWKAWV
testDetails: Inhibition of full length recombinant ATM after 24 hrs by radiometric phosphate incorporation assay
pIC50: −log10 of the molar value.
measuredEndpoint: pIC50

>  <compound>
CCS(=O)(=O)c1ccc(-c2cnc(N)c(C(=O)Nc3ccccc3)n2)cc1

>  <valueObserved>
< 5.10

$$$$
>  <compound>
COc1ccc(-c2cnc(N)c(C(=O)Nc3ccccc3)n2)cc1

>  <valueObserved>
< 5.10

$$$$
>  <compound>
CC(C)(C)S(=O)(=O)c1ccc(-c2cnc(N)c(C(=O)Nc3ccccc3)n2)cc1

>  <valueObserved>
< 5.10

$$$$
>  <compound>
Nc1ncc(-c2ccc(C(=O)N3CCCC3)cc2)nc1C(=O)Nc1ccccc1

>  <valueObserved>
< 5.10

$$$$
>  <compound>
CS(=O)(=O)c1ccc(-c2cnc(N)c(-c3cc4ccccc4[nH]3)n2)cc1

>  <valueObserved>
6.92

$$$$
>  <compound>
CC(CCO)S(=O)(=O)c1ccc(-c2cnc(N)c(C(=O)Nc3ccccc3)n2)cc1 (centres undefined)

>  <valueObserved>
< 5.10

$$$$
>  <compound>
Nc1ncc(-c2ccccc2O)nc1C(=O)Nc1ccccc1

>  <valueObserved>
< 5.10

$$$$
>  <compound>
N#Cc1cccc(-c2cnc(N)c(C(=O)Nc3ccccc3)n2)c1

>  <valueObserved>
< 5.10

$$$$
>  <compound>
Nc1ncc(-c2ccccc2)nc1C(=O)Nc1ccccc1

>  <valueObserved>
< 5.10

$$$$
>  <compound>
Cc1ccc(-c2cnc(N)c(C(=O)Nc3ccccc3)n2)cc1

>  <valueObserved>
< 5.10

$$$$
>  <compound>
CS(=O)(=O)c1ccc(-c2cnc(N)c(-c3nc4ccccc4s3)n2)cc1

>  <valueObserved>
6.14

$$$$
>  <compound>
Nc1ncc(-c2ccc(Cl)cc2)nc1C(=O)Nc1ccccc1

>  <valueObserved>
< 5.10

$$$$
>  <compound>
CNC(=O)c1ccc(-c2cnc(N)c(C(=O)Nc3ccccc3)n2)cc1

>  <valueObserved>
5.59

$$$$
>  <compound>
O=c1cc(N2CCOCC2)oc2c1ccc1ccccc12

>  <valueObserved>
< 4.00

$$$$
>  <compound>
Nc1ncc(-c2ccc(O)cc2)nc1C(=O)Nc1ccccc1

>  <valueObserved>
5.24

$$$$
>  <compound>
Nc1ncc(-c2cccc(O)c2)nc1C(=O)Nc1ccccc1

>  <valueObserved>
< 5.10

$$$$
>  <compound>
NC(=O)c1ccc(-c2cnc(N)c(C(=O)Nc3ccccc3)n2)cc1

>  <valueObserved>
5.54

$$$$
>  <compound>
Nc1ncc(-c2cccc(Cl)c2)nc1C(=O)Nc1ccccc1

>  <valueObserved>
< 5.10

$$$$
>  <compound>
CS(=O)(=O)c1ccc(-c2cnc(N)c(C(=O)Nc3ccccc3)n2)cc1

>  <valueObserved>
< 5.10

$$$$
